All figures here come from patent US8785488B2.

Target: human TGR5 (h-TGR5) (Homo sapiens, UniProt Q8TDU6)
Construct: expressed in transfected cells
Sequence (Q8TDU6 whole entry): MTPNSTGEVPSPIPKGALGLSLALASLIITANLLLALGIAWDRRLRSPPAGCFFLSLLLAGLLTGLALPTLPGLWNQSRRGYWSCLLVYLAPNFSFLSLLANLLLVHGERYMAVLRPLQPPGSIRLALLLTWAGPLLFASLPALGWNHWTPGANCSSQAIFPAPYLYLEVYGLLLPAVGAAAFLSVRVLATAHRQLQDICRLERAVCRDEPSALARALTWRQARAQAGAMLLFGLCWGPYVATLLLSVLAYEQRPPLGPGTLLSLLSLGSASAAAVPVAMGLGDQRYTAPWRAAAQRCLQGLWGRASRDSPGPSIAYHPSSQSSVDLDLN
Experiment: TGR5/CRE-Luciferiase Assay (HEK 293 hTGR5/CRE-Luc cells)
Assay type: cell-based
Settings: h-TGR5 CRE-Luc EC50, Table 1; read-out: CRE-Luc (EC50)
pEC50: −log10 of the molar value.
observation-type: pEC50

- chemical-smiles: "CC(C)(c1ccc(Cl)c(Cl)c1)c1cnc(SCc2ccc(F)c(C(=O)NCC(F)(F)F)c2)n1-c1ccc(F)cc1"
  target-or-system: "human TGR5 (h-TGR5) (Homo sapiens, UniProt Q8TDU6)"
  result: "6.00 to 7.00"
- chemical-smiles: "COc1c(Cl)cc(C(C)(C)c2cnc(SCc3ccc(F)c(S(N)(=O)=O)c3)n2-c2ccc(F)cc2)cc1Cl"
  target-or-system: "human TGR5 (h-TGR5) (Homo sapiens, UniProt Q8TDU6)"
  result: "> 7.00"
- chemical-smiles: "CC(C)(c1ccc(Cl)c(OCCCO)c1)c1cnc(SCc2c(F)cccc2Cl)n1-c1ccc(F)cc1"
  target-or-system: "human TGR5 (h-TGR5) (Homo sapiens, UniProt Q8TDU6)"
  result: "6.00 to 7.00"
- chemical-smiles: "CC(C)(c1ccc(Cl)c(Cl)c1)c1cnc(-c2ccc(F)cc2)n1-c1ccc(F)cc1"
  target-or-system: "human TGR5 (h-TGR5) (Homo sapiens, UniProt Q8TDU6)"
  result: "6.00 to 7.00"
- chemical-smiles: "COc1cc(C(C)(C)c2cnc(SCc3c(F)cc(C(=O)NCCCC(=O)O)cc3Cl)n2-c2ccc(F)cc2)ccc1Cl"
  target-or-system: "human TGR5 (h-TGR5) (Homo sapiens, UniProt Q8TDU6)"
  result: "> 7.00"
- chemical-smiles: "CC(=O)c1ccc(OCc2ncc(C(C)(C)c3ccc(Cl)c(Cl)c3)n2-c2ccc(F)cc2)c(Cl)c1"
  target-or-system: "human TGR5 (h-TGR5) (Homo sapiens, UniProt Q8TDU6)"
  result: "5.00 to 6.00"
- chemical-smiles: "CC(C)(c1ccc(S(N)(=O)=O)c(Cl)c1)c1cnc(SCc2c(F)cc(C(=O)O)cc2F)n1-c1ccc(F)c(F)c1"
  target-or-system: "human TGR5 (h-TGR5) (Homo sapiens, UniProt Q8TDU6)"
  result: "> 7.00"

---

Target: human TGR5 (h-TGR5) (Homo sapiens)
Construct: expressed in transfected cells
Assay: TGR5/CRE-Luciferiase Assay (HEK 293 hTGR5/CRE-Luc cells)
Type: cell-based
Conditions: h-TGR5 CRE-Luc EC50, Table 1; read-out: CRE-Luc (EC50)
observation-type: EC50

- compound: "COc1cc(C(C)(C)c2cnc(SCc3cc(OCCNC(=N)N)c(Cl)cc3F)n2-c2ccc(F)cc2)ccc1Cl"
  result: "100 to 1000 nM"
- compound: "CC(C)(c1ccc(S(N)(=O)=O)c(Cl)c1)c1cnc(SCc2c(F)cc(C(=O)O)cc2F)n1-c1ccc(F)cn1"
  result: "100 to 1000 nM"
- compound: "COc1ccc(C(C)(C)c2cnc(SCc3ccc(C(N)=O)cc3F)n2-c2ccc(F)cc2)cc1OC"
  result: "100 to 1000 nM"
- compound: "COc1cc(C(C)(C)c2cnc(SCc3c(F)cc(C(=O)NC(CCCNC(=N)N)C(=O)O)cc3Cl)n2-c2ccc(F)cc2)ccc1F (centres unmarked)"
  result: "< 100 nM"
- compound: "CC(C)(c1ccc(Cl)c(Cl)c1)c1cnc(SCc2cc(C#N)ccc2Cl)n1-c1ccc(F)cc1"
  result: "< 100 nM"
- compound: "CC(C)(c1ccc(S(N)(=O)=O)c(Cl)c1)c1cnc(SCc2ccc(Cl)c(-c3nnn[nH]3)c2)n1-c1ccc(F)c(F)c1"
  result: "100 to 1000 nM"
- compound: "COc1ccc(C(C)(C)c2cnc(SCc3ccc(Cl)c(Cl)c3)n2-c2ccc(F)cc2)cc1OC"
  result: "< 100 nM"
- compound: "COc1cc(C(C)(C)c2cnc(SCc3ccc(C#CCNC(=N)N)c(C(=O)O)c3)n2-c2ccc(F)cc2)ccc1Cl"
  result: "< 100 nM"
- compound: "COc1cc(C(C)(C)c2cnc(SCc3ccc(F)cc3Cl)n2-c2ccc(F)cc2)ccc1Cl"
  result: "< 100 nM"
- compound: "COc1cc(C(C)(C)c2cnc(SCc3c(F)cc(C(C)(C)O)cc3Cl)n2-c2ccc(F)cc2)ccc1Cl"
  result: "< 100 nM"
- compound: "CC(C)(c1ccc(Cl)c(Cl)c1)c1cnc(COC2CCN(S(C)(=O)=O)CC2)n1-c1ccc(F)cc1"
  result: "1000 to 10000 nM"
- compound: "COc1c(Cl)cc(C(C)(C)c2cnc(SCc3ccc(S(N)(=O)=O)cc3Cl)n2-c2ccc(F)cc2)cc1Cl"
  result: "< 100 nM"
- compound: "CC(C)(O)COc1ccc(C(C)(C)c2cnc(SCc3ccc(F)cc3Cl)n2-c2ccc(F)cc2)cc1Cl"
  result: "100 to 1000 nM"
- compound: "CC(C)(c1ccc(Cl)c(Cl)c1)c1c(Cl)nc(SCc2ccc(-c3nnn[nH]3)c(Cl)c2)n1-c1ccc(F)cc1"
  result: "100 to 1000 nM"
- compound: "COC[C@H]1CCCN1NC(=O)NS(=O)(=O)c1ccc(CSc2ncc(C(C)(C)c3ccc(Cl)c(OC)c3)n2-c2ccc(F)cc2)c(Cl)c1"
  result: "100 to 1000 nM"
- compound: "CC(C)(c1ccc(C#N)c(Cl)c1)c1cnc(SCc2ccc(F)cc2Cl)n1-c1ccc(F)cc1"
  result: "100 to 1000 nM"
- compound: "Fc1ccc(-n2c(C(F)(F)c3ccc(Cl)c(Cl)c3)cnc2SCc2c(F)cccc2Cl)cc1"
  result: "1000 to 10000 nM"
